Catalogue of growth values
- Tested on: CAKI-1 renal
- Assay Text: NCI-60 one-dose screen, 48 h (100 = growth as untreated, 0 = no growth, -100 = all killed)
- Test Parameters: 10 µM unless noted
About 83,000 compounds went through this panel and 20% of them were active in at least one assay; those are over-represented in the sample as a whole.
Parameter: growth (%)

[
  {
    "Compound": "N#Cc1ccc(NC(=O)c2sc3nc4c(cc3c2N)C(=O)CCC4)cc1",
    "Target System": "CAKI-1 renal",
    "Parameter": "growth",
    "Value Measured": 93.3
  },
  {
    "Compound": "COc1cc2cc(Oc3ccc(NC(=O)Nc4ccc(Cl)c(Cl)c4)cc3)c(C)nc2cc1OCCN1CCOCC1",
    "Target System": "CAKI-1 renal",
    "Parameter": "growth",
    "Value Measured": 87.5
  },
  {
    "Compound": "Cc1cc(Cl)ccc1NS(=O)(=O)c1ccc(-c2cnc(C3CC3)o2)cc1",
    "Target System": "CAKI-1 renal",
    "Parameter": "growth",
    "Value Measured": 43.4
  },
  {
    "Compound": "C/C=C(\\C)C(=O)N[C@H]1[C@@H](OC(C)=O)C[C@]2(C)C3CC[C@@]4(C)C(CC[C@@H]4C(C)N(C)C)C3CCC2[C@H]1O (some centres undefined)",
    "Target System": "CAKI-1 renal",
    "Parameter": "growth",
    "Value Measured": 65.6
  }
]

* * *

- System: PC-3 prostate
- Assay Text: NCI-60 one-dose screen, 48 h
- Test Parameters: 10 µM unless noted
Compounds without any hit were thinned out: in the full panel of roughly 83,000, 20% have a hit. Active and inactive are the calls of the source. Rule for the calls: active = growth percent below 10; inactive = the rest.
Classes used: active, inactive

[
  {
    "Molecule": "Cc1[nH]c(C(=O)Nc2ccc(C(=O)NCCN)cc2OC(C)C)c(Cl)c1Cl",
    "Category": "inactive"
  },
  {
    "Molecule": "CNC(=O)c1[nH]cc(-c2ccccc2)c1-c1cc(OC)c2c(c1OC)OCO2",
    "Category": "inactive"
  },
  {
    "Molecule": "Cc1cccc2c3c(sc12)C(c1ccc(F)cc1)C(C#N)=C(N)O3 (stereo not given)",
    "Category": "active"
  },
  {
    "Molecule": "CC1=C(C)C(=O)C(Nc2cccc(C(=O)OC(C)(C)C)c2)=C(Br)C1=O",
    "Category": "inactive"
  },
  {
    "Molecule": "Cc1nc(/N=C(\\N)NC(=O)Nc2cccc(Cl)c2)sc1C",
    "Category": "inactive"
  },
  {
    "Molecule": "Cn1cc(-c2ccc3cc(-c4ccc(CC(=O)Nc5cc(C(C)(C)C)nn5C)cc4)cnc3c2)cn1",
    "Category": "active"
  },
  {
    "Molecule": "C#Cc1cccc(NC(=O)Nc2ccccc2NC(=O)CCl)c1",
    "Category": "active"
  },
  {
    "Molecule": "N#Cc1ccc(NC(=O)c2sc3nc4c(cc3c2N)C(=O)CCC4)cc1",
    "Category": "inactive"
  },
  {
    "Molecule": "Fc1cc(-c2nnc3sc(-c4ccc(Cl)cc4Cl)nn23)c(Cl)cc1Cl",
    "Category": "inactive"
  },
  {
    "Molecule": "COc1ccc2c(c1)C(C)Cc1c(ncnc1-n1c(C)nc3ccccc31)N2C (stereo not given)",
    "Category": "inactive"
  }
]

* * *

- Test system: SF-539 CNS
- Assay Text: NCI-60 one-dose screen, 48 h (100 = growth as untreated, 0 = no growth, -100 = all killed)
- Test Parameters: 10 µM unless noted
The panel holds about 83,000 compounds, 20% with a hit somewhere; the sample as a whole holds those more often.
Consider the reported growth of an entry and match it to a band in L: < 30%; M: ≥ 30% and < 90%; H: ≥ 90%

[
  {
    "Molecule": "O=C1c2ccccc2NC(n2sc3ccccc3c2=O)N1c1ccccc1 (centres undefined)",
    "Category": "H"
  },
  {
    "Molecule": "O=C(Nn1c(NCC(=O)N2c3ccccc3Sc3ccccc32)nnc1-c1ccc(O)cc1)c1ccccc1",
    "Category": "H"
  },
  {
    "Molecule": "CN1C(=O)CNC(=O)[C@H](NC(=O)c2nc3ccccc3cc2O)CSSC[C@H]1C(=O)NCCc1nc2ccccc2cc1O",
    "Category": "H"
  },
  {
    "Molecule": "c1ccc(CO[C@H]2CO[C@H]3[C@@H]2OC[C@@H]3Oc2ccc(Nc3ncnc4ccsc34)cc2)cc1",
    "Category": "M"
  },
  {
    "Molecule": "CS(=O)(=O)Nc1cc(-c2ccc3ncnc(Nc4cccc(Cl)c4F)c3c2)cnc1Cl",
    "Category": "L"
  },
  {
    "Molecule": "CCOC(=O)Cn1c(C)c(/C=N/NC(=O)c2cc3c(ccc4ccccc43)o2)c2ccccc21",
    "Category": "L"
  },
  {
    "Molecule": "COc1cc2cc(Oc3ccc(NC(=O)Nc4ccc(F)c(C(F)(F)F)c4)cc3)c(C)nc2cc1OCCN1CCOCC1",
    "Category": "M"
  },
  {
    "Molecule": "Cn1cc(-c2ccc3cc(-c4ccc(CC(=O)Nc5cc(C(C)(C)C)nn5C)cc4)cnc3c2)cn1",
    "Category": "L"
  }
]

* * *

- System: HOP-92 NSCLC
- Assay Text: NCI-60 one-dose screen, 48 h (100 = growth as untreated, 0 = no growth, -100 = all killed)
- Test Parameters: 10 µM unless noted
The panel holds about 83,000 compounds, 20% with a hit somewhere; the sample as a whole holds those more often.
Criterion: growth strictly under 10%. Met: YES. Not met: NO.

[
  {
    "Molecule": "CCN1C(=O)N(CC)C2Nn3c(s/c(=C4\\C(=O)N(CC(C)C)c5ccccc54)c3=O)=NC21 (centres undefined)",
    "Target System": "HOP-92 NSCLC",
    "Category": "NO"
  },
  {
    "Molecule": "CC1(C)C2CC1C1(/C=N\\Nc3ccccc3)C(C2)C(C#N)(C#N)C1(C#N)C#N (centres undefined)",
    "Target System": "HOP-92 NSCLC",
    "Category": "NO"
  },
  {
    "Molecule": "CN1C(=O)N(C)C2Nn3c(s/c(=C\\c4ccccc4)c3=O)=NC21 (centres undefined)",
    "Target System": "HOP-92 NSCLC",
    "Category": "NO"
  },
  {
    "Molecule": "CN1CCN(Cc2ccc(NC(=O)c3cncc(C#Cc4cnccc4C#N)c3)cc2C(F)(F)F)CC1",
    "Target System": "HOP-92 NSCLC",
    "Category": "NO"
  },
  {
    "Molecule": "CCCCCCN1C(=O)/C(=c2\\sc3n(c2=O)C2C(NN=3)N(CC)C(=O)N2CC)c2ccccc21 (centres undefined)",
    "Target System": "HOP-92 NSCLC",
    "Category": "NO"
  },
  {
    "Molecule": "CC([C@H]1CCC2C3CCC4C[C@@H](NC=O)CC[C@]4(C)C3CC[C@@]21C)N(C)C (some centres undefined)",
    "Target System": "HOP-92 NSCLC",
    "Category": "YES"
  },
  {
    "Molecule": "O=C(O)c1cn(C2CC2)c2cc(N3CCN(C(=O)Nc4nc(-c5ccc(Cl)cc5)cs4)CC3)c(F)cc2c1=O",
    "Target System": "HOP-92 NSCLC",
    "Category": "YES"
  },
  {
    "Molecule": "COc1ccc2nc(NCCCNCCO)c3sc4ccc(F)cc4c(=O)c3c2c1",
    "Target System": "HOP-92 NSCLC",
    "Category": "NO"
  },
  {
    "Molecule": "CC(=O)c1ccc(Nc2nc(C(C)=O)c(C)s2)cc1",
    "Target System": "HOP-92 NSCLC",
    "Category": "NO"
  }
]

* * *

- System: PC-3 prostate
- Assay Text: NCI-60 one-dose screen, 48 h (100 = growth as untreated, 0 = no growth, -100 = all killed)
- Test Parameters: 10 µM unless noted
The panel holds about 83,000 compounds, 20% with a hit somewhere; the sample as a whole holds those more often.

[
  {
    "Molecule": "Cc1cccc2c3c(sc12)C(c1ccc(Cl)cc1)C(C#N)=C(N)O3 (stereo not given)",
    "growth (%)": 16.2
  },
  {
    "Molecule": "O=C(CCN1C(=O)/C(=C/c2ccc(O)cc2)SC1=S)Nc1ccc(Cl)cc1",
    "growth (%)": 88.1
  },
  {
    "Molecule": "c1cc(NCCc2ccncc2)nc(-n2cnc3ccccc32)c1",
    "growth (%)": 83
  },
  {
    "Molecule": "CC1=NN(c2ccc(S(=O)(=O)O)cc2)C(=O)C1N=Nc1ccc(-c2ccc(N=Nc3ccc(OS(=O)(=O)c4ccc(C)cc4)cc3)c(S(=O)(=O)O)c2)cc1 (stereo not given)",
    "growth (%)": 86.3
  },
  {
    "Molecule": "CCS(=O)(=O)c1ncnc2nc[nH]c12",
    "growth (%)": 76.4
  }
]
